# EC50 values compiled below
- assayedTarget: human MCH-2R (Homo sapiens)
- Sequence (Q969V1 whole entry): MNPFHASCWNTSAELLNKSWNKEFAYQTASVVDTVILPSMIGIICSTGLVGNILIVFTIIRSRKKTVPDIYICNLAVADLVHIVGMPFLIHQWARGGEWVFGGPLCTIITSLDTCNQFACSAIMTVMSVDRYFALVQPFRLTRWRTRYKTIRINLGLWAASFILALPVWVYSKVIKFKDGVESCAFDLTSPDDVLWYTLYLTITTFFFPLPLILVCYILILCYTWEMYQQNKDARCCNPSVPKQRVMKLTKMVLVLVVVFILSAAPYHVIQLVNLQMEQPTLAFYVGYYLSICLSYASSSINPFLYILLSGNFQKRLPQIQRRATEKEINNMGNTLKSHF
- testDetails: Aequorin bioluminescence functional assay, MCH-2R agonist activity
Where a SMILES comes first, the peptide text is derived from it. Bridges are numbered along the chain shown (N, C = ends). [ ]: non-standard residue; d: D form. The star is where a group is joined. Pentanoyl(5-guanidino) = NC(N)=NCCCCC(=O)*; Ava = NCCCCC(=O)O

molecule	EC50
CSCC[C@@H]1NC(=O)[C@@H](NC(=O)CCCCNC(=N)N)CSSC[C@@H](C(N)=O)NC(=O)CCCCNC(=O)CCCCNC(=O)[C@H](Cc2ccc(O)cc2)NC(=O)[C@H](C(C)C)NC(=O)[C@H](CCCNC(=N)N)NC(=O)CCCCNC(=O)CCCCNC1=O [SEQ. ID. NO. 32] ({Pentanoyl(5-guanidino)}-CM[Ava][Ava]RVY[Ava][Ava]C-NH2; disulfide 1-10; C-terminus assumed)	> 10 µM
CSCC[C@@H]1NC(=O)[C@@H](NC(=O)[C@@H](CCCNC(=N)N)NC(C)=O)CSSC[C@@H](C(N)=O)NC(=O)CCCCNC(=O)CCCCNC(=O)[C@H](Cc2ccc(O)cc2)NC(=O)[C@H](C(C)C)NC(=O)[C@H](CCCNC(=N)N)NC(=O)CCCCNC(=O)CCCCNC1=O [SEQ. ID. NO. 33] (Ac-[dR]CM[Ava][Ava]RVY[Ava][Ava]C-NH2; disulfide 2-11 (inferred); C-terminus assumed)	> 10 µM
CSCC[C@@H]1NC(=O)[C@@H](NC(=O)[C@H](CCCNC(=N)N)NC(C)=O)CSSC[C@@H](C(N)=O)NC(=O)CCCCNC(=O)CCCCNC(=O)[C@H](Cc2ccc(O)cc2)NC(=O)[C@H](C(C)C)NC(=O)[C@H](CCCNC(=N)N)NC(=O)[C@H]2CCCN2C(=O)[C@H](CC(C)C)NC1=O [SEQ. ID. NO. 28] (Ac-RCML[dP]RVY[Ava][Ava]C-NH2; disulfide 2-11 (inferred); C-terminus assumed)	> 10 µM

====

- assayedTarget: UniProtKB P97639
- testDetails: Antagonist assay, 293-AEQ17 cells expressing rat MCH-1R
Where a SMILES comes first, the peptide text is derived from it. Bridges are numbered along the chain shown (N, C = ends). [ ]: non-standard residue; d: D form. The star is where a group is joined. Pentanoyl(5-guanidino) = NC(N)=NCCCCC(=O)*; dNle = CCCC[C@@H](N)C(=O)O; Nle = CCCC[C@H](N)C(=O)O; Ava = NCCCCC(=O)O
parameter: log10 IC50 (log10 of the value in nM)

compound	log10 IC50
CCCC[C@@H]1NC(=O)[C@@H](NC(=O)CCCCNC(=N)N)CSSC[C@@H](C(N)=O)NC(=O)CCCCNC(=O)CCCCNC(=O)[C@H](Cc2ccc(O)cc2)NC(=O)[C@H](C(C)C)NC(=O)[C@H](CCCNC(=N)N)NC(=O)CNC(=O)[C@H](CC(C)C)NC1=O [SEQ. ID. NO. 16] ({Pentanoyl(5-guanidino)}-C[Nle]LGRVY[Ava][Ava]C-NH2; disulfide 1-10; C-terminus assumed)	1.14
CSCC[C@@H]1NC(=O)[C@@H](NC(=O)CCCCNC(=N)N)CSSC[C@@H](C(=O)O)NC(=O)CCCCNC(=O)CCCCNC(=O)[C@H](Cc2ccc(O)cc2)NC(=O)[C@H](C(C)C)NC(=O)[C@H](CCCNC(=N)N)NC(=O)CNC(=O)[C@H](CC(C)C)NC1=O	1.88
CC(C)C[C@@H]1NC(=O)[C@H](C)NC(=O)[C@@H](NC(=O)CCCCNC(=N)N)CSSC[C@@H](C(N)=O)NC(=O)CCCCNC(=O)CCCCNC(=O)[C@H](Cc2ccc(O)cc2)NC(=O)[C@H](C(C)C)NC(=O)[C@H](CCCNC(=N)N)NC(=O)CNC1=O [SEQ. ID. NO. 19] ({Pentanoyl(5-guanidino)}-CALGRVY[Ava][Ava]C-NH2; disulfide 1-10 (inferred); C-terminus assumed)	1.83
CSCC[C@@H]1NC(=O)[C@@H](NC(=O)[C@H](CCCNC(=N)N)NC(C)=O)CSSC[C@@H](C(N)=O)NC(=O)CCCCNC(=O)CCCCNC(=O)[C@H](Cc2ccc(O)cc2)NC(=O)[C@H](C(C)C)NC(=O)[C@H](CCCNC(=N)N)NC(=O)CCCCNC(=O)CCCCNC1=O [SEQ. ID. NO. 30] (Ac-RCM[Ava][Ava]RVY[Ava][Ava]C-NH2; disulfide 2-11 (inferred); C-terminus assumed)	1.03
CSCC[C@@H]1NC(=O)[C@@H](NC(=O)[C@@H](CCCNC(=N)N)NC(C)=O)CSSC[C@@H](C(N)=O)NC(=O)CCCCNC(=O)CCCCNC(=O)[C@H](Cc2ccc(O)cc2)NC(=O)[C@H](C(C)C)NC(=O)[C@H](CCCNC(=N)N)NC(=O)CCCCNC(=O)CCCCNC1=O [SEQ. ID. NO. 33] (Ac-[dR]CM[Ava][Ava]RVY[Ava][Ava]C-NH2; disulfide 2-11 (inferred); C-terminus assumed)	1.14
CSCC[C@@H]1NC(=O)[C@@H](NC(=O)CCCCNC(=N)N)CSSC[C@@H](C(N)=O)NC(=O)CCCCNC(=O)CCCCNC(=O)[C@H](Cc2ccc(O)cc2)NC(=O)[C@H](C(C)C)NC(=O)[C@H](CCCNC(=N)N)NC(=O)CCCCNC(=O)CCCCNC1=O [SEQ. ID. NO. 32] ({Pentanoyl(5-guanidino)}-CM[Ava][Ava]RVY[Ava][Ava]C-NH2; disulfide 1-10; C-terminus assumed)	1.75
CSCC[C@@H]1NC(=O)[C@@H](NC(=O)CCCCNC(=N)N)CSSC[C@@H](C(N)=O)NC(=O)CCCNC(=O)CCCNC(=O)[C@H](Cc2ccc(O)cc2)NC(=O)[C@H](C(C)C)NC(=O)[C@H](CCCNC(=N)N)NC(=O)CNC(=O)[C@H](CC(C)C)NC1=O	0.84
CCCC[C@H]1NC(=O)[C@H](CC(C)C)NC(=O)[C@H](CCSC)NC(=O)[C@@H](NC(=O)CCCCNC(=N)N)CSSC[C@@H](C(N)=O)NC(=O)CCCCNC(=O)CCCCNC(=O)[C@H](Cc2ccc(O)cc2)NC(=O)[C@H](C(C)C)NC(=O)[C@H](CCCNC(=N)N)NC1=O [SEQ. ID. NO. 27] ({Pentanoyl(5-guanidino)}-CML[dNle]RVY[Ava][Ava]C-NH2; disulfide 1-10; C-terminus assumed)	0.73
CSCC[C@@H]1NC(=O)[C@@H](NC(=O)CCCCNC(=N)N)CSSC[C@@H](C(N)=O)NC(=O)CCCCNC(=O)CCCCNC(=O)[C@H](Cc2ccc(O)cc2)NC(=O)[C@H](C)NC(=O)[C@H](CCCNC(=N)N)NC(=O)CNC(=O)[C@H](CC(C)C)NC1=O [SEQ. ID. NO. 20] ({Pentanoyl(5-guanidino)}-CMLGRAY[Ava][Ava]C-NH2; disulfide 1-10; C-terminus assumed)	0.67
CSCC[C@@H]1NC(=O)[C@@H](NC(=O)CCCCNC(=N)N)CSSC[C@@H](C(N)=O)NC(=O)CCCCNC(=O)CCCCNC(=O)[C@H](Cc2ccc(O)cc2)NC(=O)[C@H](C(C)C)NC(=O)[C@H](CCCNC(=N)N)NC(=O)CNC(=O)[C@H](CC(C)C)NC1=O	0.46
CSCC[C@@H]1NC(=O)[C@@H](NC(=O)CCCCNC(=N)N)CSSC[C@@H](C(N)=O)NC(=O)CCNC(=O)CCNC(=O)[C@H](Cc2ccc(O)cc2)NC(=O)[C@H](C(C)C)NC(=O)[C@H](CCCNC(=N)N)NC(=O)CNC(=O)[C@H](CC(C)C)NC1=O	0.83

====

- assayedTarget: human MCH-1R (Homo sapiens, UniProt Q99705)
- Sequence (Q99705 whole entry): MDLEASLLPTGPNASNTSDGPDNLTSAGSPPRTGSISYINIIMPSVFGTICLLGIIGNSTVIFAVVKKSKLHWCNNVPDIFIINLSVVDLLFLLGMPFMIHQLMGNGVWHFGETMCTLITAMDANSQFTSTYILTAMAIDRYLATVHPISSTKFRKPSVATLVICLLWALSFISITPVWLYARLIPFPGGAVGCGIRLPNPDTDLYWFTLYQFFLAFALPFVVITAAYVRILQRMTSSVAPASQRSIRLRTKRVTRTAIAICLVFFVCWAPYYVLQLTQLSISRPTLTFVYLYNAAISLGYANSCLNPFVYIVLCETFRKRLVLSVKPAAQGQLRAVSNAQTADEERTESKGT
Where a SMILES comes first, the peptide text is derived from it. Bridges are numbered along the chain shown (N, C = ends). [ ]: non-standard residue; d: D form. Ava = NCCCCC(=O)O
parameter: IC50

compound	result
CC(=O)N[C@@H](CCCNC(=N)N)C(=O)N[C@H]1CSSC[C@@H](C(N)=O)NC(=O)CCCCNC(=O)CCCCNC(=O)[C@H](Cc2ccc(O)cc2)NC(=O)[C@H](C(C)C)NC(=O)[C@H](CCCNC(=N)N)NC(=O)CNC(=O)[C@H](CC(C)C)NC(=O)[C@H](C)NC1=O [SEQ. ID. NO. 22] (Ac-RCALGRVY[Ava][Ava]C-NH2; disulfide 2-11; C-terminus assumed)	> 1000 nM

====

# EC50 values compiled below
- assayedTarget: rat MCH-1R (Rattus norvegicus, UniProt P97639)
- Sequence (P97639 whole entry): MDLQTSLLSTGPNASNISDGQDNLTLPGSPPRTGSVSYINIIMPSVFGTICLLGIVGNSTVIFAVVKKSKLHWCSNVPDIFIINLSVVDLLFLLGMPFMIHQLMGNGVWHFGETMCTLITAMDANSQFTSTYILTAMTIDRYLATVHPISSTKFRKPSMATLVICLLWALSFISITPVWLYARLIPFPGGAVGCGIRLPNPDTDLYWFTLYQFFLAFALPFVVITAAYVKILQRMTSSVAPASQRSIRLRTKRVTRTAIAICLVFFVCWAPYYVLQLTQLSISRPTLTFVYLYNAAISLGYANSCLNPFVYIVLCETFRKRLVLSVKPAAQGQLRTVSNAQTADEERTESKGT
- testDetails: Aequorin bioluminescence functional assay, MCH-1R agonist activity
Where a SMILES comes first, the peptide text is derived from it. Bridges are numbered along the chain shown (N, C = ends). [ ]: non-standard residue; d: D form. The star is where a group is joined. Pentanoyl(5-guanidino) = NC(N)=NCCCCC(=O)*; Abu = CC[C@H](N)C(=O)O; Ava = NCCCCC(=O)O
parameter: EC50 (nM)

molecule	parameter	comparisonSymbol	numericResult
CSCC[C@@H]1NC(=O)[C@@H](NC(=O)[C@H](CCCNC(=N)N)NC(C)=O)CSSC[C@@H](C(N)=O)NC(=O)[C@@H]2CCCN2C(=O)[C@H](CCCNC(=N)N)NC(=O)[C@H](Cc2ccc(O)cc2)NC(=O)[C@H](C(C)C)NC(=O)[C@H](CCCNC(=N)N)NC(=O)CNC(=O)[C@H](CC(C)C)NC1=O	EC50	=	20
CSCC[C@@H]1NC(=O)[C@@H](NC(=O)CCCCNC(=N)N)CSSC[C@@H](C(N)=O)NC(=O)[C@@H]2CCCN2C(=O)[C@H](CCCNC(=N)N)NC(=O)[C@H](Cc2ccc(O)cc2)NC(=O)[C@H](C(C)C)NC(=O)[C@H](CCCNC(=N)N)NC(=O)CCCCNC(=O)CCCCNC1=O [SEQ. ID. NO. 5] ({Pentanoyl(5-guanidino)}-CM[Ava][Ava]RVYRPC-NH2; disulfide 1-10 (inferred); C-terminus assumed)	EC50	=	380
CC[C@@H]1NC(=O)[C@@H](NC(=O)CCCCNC(=N)N)CSSC[C@@H](C(N)=O)NC(=O)CCCCNC(=O)CCCCNC(=O)[C@H](Cc2ccc(O)cc2)NC(=O)[C@H](C(C)C)NC(=O)[C@H](CCCNC(=N)N)NC(=O)CNC(=O)[C@H](CC(C)C)NC1=O [SEQ. ID. NO. 17] ({Pentanoyl(5-guanidino)}-C[Abu]LGRVY[Ava][Ava]C-NH2; disulfide 1-10; C-terminus assumed)	EC50	>	10000
